Tgt: T1, human MSLN-R2-his protein (human, UniProt Q13421 391-486)
T1 construct: Self-made in HEK293E cells; also called human MSLN-R2 protein; hMSLN-R2-his; not shown: His tag
Assay Method Text: ELISA on coated antigen, antibody 0.0001 nM
Listed here: items and their measured OD450.
Numbers only; they are read as OD450.

Item under review: S009-F2.39.3 (antibody, human IgG1, kappa, V domains shown, Human-murine chimeric antibody: murine VH/VL on human IgG1 heavy and kappa light constant regions) VH: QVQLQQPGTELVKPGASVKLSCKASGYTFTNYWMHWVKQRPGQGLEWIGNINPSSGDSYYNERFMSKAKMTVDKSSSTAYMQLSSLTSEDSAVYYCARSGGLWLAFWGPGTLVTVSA VL: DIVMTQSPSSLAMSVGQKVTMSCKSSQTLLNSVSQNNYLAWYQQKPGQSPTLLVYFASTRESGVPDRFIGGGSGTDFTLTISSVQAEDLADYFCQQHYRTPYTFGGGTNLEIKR . Reported OD450?
0.05

Next up: S009-F2.58.8 (antibody, human IgG1, kappa, V domains shown, Human-murine chimeric antibody: murine VH/VL on human IgG1 heavy and kappa light constant regions) VH: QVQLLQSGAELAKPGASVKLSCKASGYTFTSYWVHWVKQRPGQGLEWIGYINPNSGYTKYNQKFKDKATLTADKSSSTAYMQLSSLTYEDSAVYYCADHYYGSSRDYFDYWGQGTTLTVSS VL: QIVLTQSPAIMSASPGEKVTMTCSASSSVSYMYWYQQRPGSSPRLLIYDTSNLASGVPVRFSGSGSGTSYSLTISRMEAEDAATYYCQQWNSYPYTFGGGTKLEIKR
0.05

Source listed as patent US20250250357A1.
